Consider the following compounds; for each one, report its IC50.
- experimentalSystem: Human IL-17A (Homo sapiens, UniProt Q16552)
- Sequence (Q16552 20-155 limits assumed): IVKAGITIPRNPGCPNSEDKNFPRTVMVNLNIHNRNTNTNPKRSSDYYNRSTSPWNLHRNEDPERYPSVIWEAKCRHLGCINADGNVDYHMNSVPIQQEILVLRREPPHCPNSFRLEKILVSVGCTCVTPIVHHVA
- measurementDescription: Inhibition of human IL-17A protein-induced GROα/CXCL1 production in HT-29 cells
- Type: cell-based
- Parameters: purchased R&D 317-ILB; host or cells: added exogenously to HT-29 cells
- settings: 30 ng/mL human IL-17A protein, 48 h, GROα in supernatant by ELISA kit, read-out: Inhibitory IC50 of compounds on HT-29 cell GROα/CXCL1

The measured IC50 associated with CCn1nccc1C(=O)N[C@H](C(=O)Nc1cc2c(cc1F)-c1c(n[nH]c1C)CCOC2)C(C1CC1)C1CC1 [compound 16] reads 100 to 500 nM

The measured IC50 associated with [2H]C([2H])([2H])C([2H])([2H])n1nccc1C(=O)N[C@H](C(=O)Nc1cc2c(cc1F)-c1c(n[nH]c1C)CCOC2)C(C1CC1)C1CC1 [compound 90] reads 100 to 500 nM

The measured IC50 associated with COCC(COC)n1nccc1C(=O)N[C@H](C(=O)Nc1cc2c(cc1F)-c1c(n[nH]c1C)CCOC2)C(C1CC1)C1CC1 [compound 99] reads 100 to 500 nM

The measured IC50 associated with Cc1[nH]nc2c1-c1cc(F)c(NC(=O)[C@@H](NC(=O)c3ccnn3CC3COC3)C(C3CC3)C3CC3)cc1COCC2 [compound 115] reads 100 to 500 nM

The measured IC50 associated with Cc1[nH]nc2c1-c1cc(F)c(NC(=O)[C@@H](NC(=O)c3ccnn3C(C)C)C(C3CC3)C3CC3)cc1CN(C1CC1)C(=O)C2 [compound 136] reads ≤ 100 nM

The measured IC50 associated with Cc1[nH]nc2c1-c1cc(F)c(NC(=O)[C@@H](NC(=O)c3cnnn3CCOC(F)F)C(C3CC3)C3CC3)cc1COCC2 [compound 108] reads 100 to 500 nM

Hey, just so you know, these numbers are from patent US20260258050A1.
